# ASSAYED TARGET: SSBP1 Arg91Gln R91Q (Homo sapiens)
# Sequence: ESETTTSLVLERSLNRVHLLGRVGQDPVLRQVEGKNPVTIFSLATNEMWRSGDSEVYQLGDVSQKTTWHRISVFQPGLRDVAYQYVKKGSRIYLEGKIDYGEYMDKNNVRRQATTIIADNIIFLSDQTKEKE
# ASSAY: EMSA
# CONDITIONS USED: 50 mM Tris pH 7.5, 150 mM NaCl, 10% glycerol, 30 min at room temperature; 2% agarose gel in 1x TBE

{"columns": ["SEQ STRING", "Kd, nM"],
 "data": [
  ["GGACTATTTATTCAATATATTTAAGAACTAATTCCAGCTGAGCGCCGG [EMSA ssDNA probe]", 20.2]
]}
